Data provenance is ChEMBL document CHEMBL1140697.

# system-tested: GABA A receptor alpha-2/beta-2/gamma-2 (Homo sapiens, UniProt P18507+P47869+P47870)
# Sequence (P47870 whole entry): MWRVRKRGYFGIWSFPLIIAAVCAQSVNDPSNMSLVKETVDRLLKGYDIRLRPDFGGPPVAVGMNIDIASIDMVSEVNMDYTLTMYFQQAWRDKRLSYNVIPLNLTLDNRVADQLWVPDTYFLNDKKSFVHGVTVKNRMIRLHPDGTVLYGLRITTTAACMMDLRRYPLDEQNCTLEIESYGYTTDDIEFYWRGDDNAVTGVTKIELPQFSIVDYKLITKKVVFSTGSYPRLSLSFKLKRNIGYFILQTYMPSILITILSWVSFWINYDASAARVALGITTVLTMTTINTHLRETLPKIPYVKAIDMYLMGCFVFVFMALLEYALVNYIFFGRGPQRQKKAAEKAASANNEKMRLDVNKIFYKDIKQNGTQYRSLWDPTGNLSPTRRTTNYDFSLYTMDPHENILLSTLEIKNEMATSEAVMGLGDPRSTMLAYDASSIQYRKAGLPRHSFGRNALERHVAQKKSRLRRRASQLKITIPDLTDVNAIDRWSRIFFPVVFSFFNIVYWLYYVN
# Sequence (P18507 whole entry): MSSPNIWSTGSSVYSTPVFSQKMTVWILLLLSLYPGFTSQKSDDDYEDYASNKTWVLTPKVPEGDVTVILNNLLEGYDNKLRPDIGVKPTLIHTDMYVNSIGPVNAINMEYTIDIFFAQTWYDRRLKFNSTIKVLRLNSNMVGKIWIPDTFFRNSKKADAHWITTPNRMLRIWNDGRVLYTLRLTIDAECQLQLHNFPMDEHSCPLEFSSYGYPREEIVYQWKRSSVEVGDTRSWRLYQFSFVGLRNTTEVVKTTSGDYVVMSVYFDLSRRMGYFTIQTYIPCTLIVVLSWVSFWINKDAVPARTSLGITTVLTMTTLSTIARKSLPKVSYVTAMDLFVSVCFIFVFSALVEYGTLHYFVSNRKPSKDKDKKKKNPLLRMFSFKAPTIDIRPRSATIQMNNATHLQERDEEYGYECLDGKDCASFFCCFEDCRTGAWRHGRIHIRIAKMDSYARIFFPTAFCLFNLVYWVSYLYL
# Sequence (P47869 whole entry): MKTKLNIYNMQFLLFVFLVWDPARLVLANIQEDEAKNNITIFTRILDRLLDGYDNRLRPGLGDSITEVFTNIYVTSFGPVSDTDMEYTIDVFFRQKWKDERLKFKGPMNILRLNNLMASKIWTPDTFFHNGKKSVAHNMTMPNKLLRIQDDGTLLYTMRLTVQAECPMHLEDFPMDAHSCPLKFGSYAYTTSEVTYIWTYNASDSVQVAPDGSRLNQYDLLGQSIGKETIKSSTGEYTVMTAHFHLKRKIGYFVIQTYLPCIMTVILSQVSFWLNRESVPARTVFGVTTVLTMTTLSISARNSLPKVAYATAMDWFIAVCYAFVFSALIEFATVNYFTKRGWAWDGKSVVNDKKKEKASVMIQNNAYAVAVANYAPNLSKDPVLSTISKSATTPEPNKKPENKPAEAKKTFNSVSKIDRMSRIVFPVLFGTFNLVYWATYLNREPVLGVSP
# assay-summary: Binding affinity to GABA alpha-2-beta-2-gamma-2 receptor
quantity-kind: Ki

Query: Please give the measured Ki for this compound: CC(=O)N(Cc1ccccc1O[11CH3])c1cnccc1Oc1ccccc1
Response: > 10 µM

----------
# system-tested: GABA A receptor alpha-1/beta-1/gamma-2 (Homo sapiens, UniProt P14867+P18505+P18507)
# Sequence (P14867 whole entry): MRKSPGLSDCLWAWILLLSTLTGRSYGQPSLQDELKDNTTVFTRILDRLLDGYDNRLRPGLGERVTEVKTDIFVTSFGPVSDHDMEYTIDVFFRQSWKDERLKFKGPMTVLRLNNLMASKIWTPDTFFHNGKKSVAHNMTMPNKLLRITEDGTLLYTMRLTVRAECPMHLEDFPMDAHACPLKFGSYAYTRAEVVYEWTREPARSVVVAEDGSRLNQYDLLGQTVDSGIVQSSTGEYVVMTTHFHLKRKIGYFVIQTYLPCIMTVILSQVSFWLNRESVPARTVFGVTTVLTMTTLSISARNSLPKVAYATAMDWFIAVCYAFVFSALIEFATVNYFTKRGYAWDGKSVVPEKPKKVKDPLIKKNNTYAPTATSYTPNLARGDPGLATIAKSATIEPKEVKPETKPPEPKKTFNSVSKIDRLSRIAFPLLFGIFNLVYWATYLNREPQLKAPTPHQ
# Sequence (P18507 whole entry): as the sequence (P18507 whole entry) above
# Sequence (P18505 whole entry): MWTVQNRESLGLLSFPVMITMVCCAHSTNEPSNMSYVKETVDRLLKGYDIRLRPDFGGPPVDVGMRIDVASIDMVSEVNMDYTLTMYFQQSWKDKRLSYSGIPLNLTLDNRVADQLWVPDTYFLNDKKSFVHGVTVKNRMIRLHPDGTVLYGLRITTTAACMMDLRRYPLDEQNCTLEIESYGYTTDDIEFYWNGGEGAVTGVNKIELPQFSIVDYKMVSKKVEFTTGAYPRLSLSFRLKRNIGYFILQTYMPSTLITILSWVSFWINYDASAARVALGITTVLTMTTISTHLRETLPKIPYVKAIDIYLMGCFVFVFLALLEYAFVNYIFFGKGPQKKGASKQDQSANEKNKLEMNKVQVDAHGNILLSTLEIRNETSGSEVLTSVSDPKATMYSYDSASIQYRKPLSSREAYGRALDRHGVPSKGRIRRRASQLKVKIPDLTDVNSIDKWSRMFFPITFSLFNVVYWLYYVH
# assay-summary: Binding affinity to GABA alpha-1-beta-1-gamma-2 receptor
quantity-kind: Ki

Query: Please give the measured Ki for this compound: CC(=O)N(Cc1ccccc1O[11CH3])c1cnccc1Oc1ccccc1
Response: > 10 µM

----------
Record set of Ki for target or system UniProt:P30536.
Sequence (P30536 whole entry): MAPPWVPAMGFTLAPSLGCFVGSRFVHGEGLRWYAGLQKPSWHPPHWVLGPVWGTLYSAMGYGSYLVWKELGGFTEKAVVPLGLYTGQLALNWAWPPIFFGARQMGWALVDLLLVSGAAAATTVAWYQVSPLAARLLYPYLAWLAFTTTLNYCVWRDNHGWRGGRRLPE
# value in nM; strip the unit string

COc1ccc(O[11CH3])c(CN(C(C)=O)c2cc(F)ccc2Oc2ccccc2)c1 0.242

Query: Reported Ki for UniProt:P30536, given CC(=O)N(Cc1ccccc1O[11CH3])c1cnccc1Oc1ccccc1 ?
Response: 2.47

----------
Below is a list of entries, each paired with its recorded remaining at 2.5 h value.
# assay-summary: Stability in sodium phosphate buffer at pH 7.4 after 2.5 hrs
# Type: physicochemical
# condition-label: read-out: Stability
# value in %; strip the unit string

Query: Please give the measured remaining at 2.5 h for this molecule: CC(=O)N(Cc1ccccc1C(=O)O[11CH3])c1ccccc1Oc1ccccc1
Response: 99.9

Query: And then CC(=O)N(Cc1ccccc1O[11CH3])c1cnccc1Oc1ccccc1 , what is it?
Response: 99

----------
# assay-summary: Stability in Sprague-Dawley rat brain after 2 hrs
# Type: ADME, tissue-based
# condition-label: read-out: Stability
quantity-kind: remaining at 2 h (%)
# value in %; strip the unit string

Query: Please give the measured remaining at 2 h for this compound: CC(=O)N(Cc1ccccc1O[11CH3])c1cnccc1Oc1ccccc1
Response: 99.8
